biological target: UniProt:P33535; assay: ERK1/2 phosphorylation
Sequence (P33535 whole entry): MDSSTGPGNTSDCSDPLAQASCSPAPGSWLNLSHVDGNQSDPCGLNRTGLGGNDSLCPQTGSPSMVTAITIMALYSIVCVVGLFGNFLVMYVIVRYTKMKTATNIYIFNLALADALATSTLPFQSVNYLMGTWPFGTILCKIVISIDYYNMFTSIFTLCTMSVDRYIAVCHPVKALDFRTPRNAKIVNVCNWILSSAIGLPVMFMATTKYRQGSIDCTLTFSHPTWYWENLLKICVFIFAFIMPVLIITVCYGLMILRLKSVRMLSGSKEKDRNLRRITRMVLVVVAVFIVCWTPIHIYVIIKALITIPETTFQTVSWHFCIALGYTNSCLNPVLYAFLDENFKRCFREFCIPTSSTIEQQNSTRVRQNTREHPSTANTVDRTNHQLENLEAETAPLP
recorded endpoint: EC50 (nM)

CN(C(=O)/C=C/c1ccoc1)[C@@H]1CC[C@@]2(O)[C@H]3Cc4ccc(O)c5c4[C@@]2(CCN3CC2CC2)[C@H]1O5 [Nalfurafine]
7.9
